procedure.details: Pharmacokinetic assay in rat (IV 3 mg/kg, PO 10 mg/kg)
Assay type: in vivo
measurement.context: male, Sprague-Dawley, plasma, read-out: Rat F (%)
I would appreciate it if you labelled entries Fulfilled when bioavailability is 80% or higher, otherwise Not fulfilled.

| compound | class.label |
| --- | --- |
| Cn1ncc2cccc(-n3nc(COC(C)(C)C(=O)O)cc3-c3cccc(OCC(C)(C)C)c3)c21 [Example 167] | Not fulfilled |
| COc1cc(OC)cc(-c2cc(COC(C)(C)C(=O)O)nn2-c2ccccc2Cl)c1 [Example 179] | Not fulfilled |
| CCn1ncc2ccc(-c3cc(CO[C@](C)(CC)C(=O)O)nn3Cc3ccccc3Cl)cc21 [Example 220] | Not fulfilled |
| COc1cc(OC)cc(-c2cc(COC(C)(C)C(=O)O)nn2-c2ccccc2N2CCC2)c1 [Example 251] | Fulfilled |
| CCn1ncc2ccc(-c3cc(COC(C)(C)C(=O)O)nn3Cc3ccccc3Cl)cc21 [Example 150] | Not fulfilled |
| CC[C@@](C)(OCc1cc(-c2cccc(OC3CC3)c2)n(-c2ccccc2N2CCC2)n1)C(=O)O [Example 266] | Fulfilled |
| CC(C)(OCc1cc(-c2cccc(OC3CC3)c2)n(-c2ccccc2Cl)n1)C(=O)O [Example 110] | Fulfilled |
| CC(C)(OCc1cc(-c2cccc(OC3CCC3)c2)n(-c2ccccc2N2CCC2)n1)C(=O)O [Example 260] | Fulfilled |
